Provide the recorded IC50 for the entries that follow.
test system: Plasmodium falciparum; assay: Antimalarial activity against Plasmodium falciparum D6 after 72 hrs by alamar blue assay; type: functional, organism-based; conditions: D6, 72 h
Express the result in µg/mL but write the number alone.

Ask | // returns reported IC50 for input `CC[C@H]1OC(=O)[C@H](C)C(=O)[C@H](C)[C@@H](O[C@@H]2O[C@H](C)C[C@H](N(C)Cc3ccc(-c4cn(CCCCCCC(=O)NO)nn4)cc3)[C@H]2O)[C@](C)(OC)C[C@@H](C)C2=NCCN3C(=O)O[C@@]1(C)[C@H]3[C@H]2C`
Reply | 0.137

Ask | Okay, and `CC[C@H]1OC(=O)[C@H](C)C(=O)[C@H](C)[C@@H](O[C@@H]2O[C@H](C)C[C@H](N(C)Cc3ccc(-c4cn(CCCCCCCCCC(=O)NO)nn4)cc3)[C@H]2O)[C@](C)(OC)C[C@@H](C)C2=NCCN3C(=O)O[C@@]1(C)[C@H]3[C@H]2C` ?
Reply | 1.19

Ask | Also `CC[C@H]1OC(=O)[C@H](C)C(=O)[C@H](C)[C@@H](O[C@@H]2O[C@H](C)C[C@H](N(C)Cc3ccc(-c4cn(CCCCCC(=O)NO)nn4)cc3)[C@H]2O)[C@](C)(OC)C[C@@H](C)C2=NCCN3C(=O)O[C@@]1(C)[C@H]3[C@H]2C` , if possible.
Reply | 0.897

Ask | Here is the next molecule: `CC[C@H]1OC(=O)[C@H](C)C(=O)[C@H](C)[C@@H](O[C@@H]2O[C@H](C)C[C@H](N(C)Cc3ccc(-c4cn(CCCCCCCC(=O)NO)nn4)cc3)[C@H]2O)[C@](C)(OC)C[C@@H](C)C2=NCCN3C(=O)O[C@@]1(C)[C@H]3[C@H]2C`
Reply | 1.32

Ask | Next up: `C[C@@H]1CC[C@H]2[C@@H](C)C(=O)O[C@@H]3O[C@@]4(C)CC[C@@H]1[C@]32OO4`
Reply | 0.0066

Ask | Next: `CC[C@H]1OC(=O)[C@H](C)C(=O)[C@H](C)[C@@H](O[C@@H]2O[C@H](C)C[C@H](N(C)Cc3ccc(-c4cn(CCCCCCCCC(=O)NO)nn4)cc3)[C@H]2O)[C@](C)(OC)C[C@@H](C)C2=NCCN3C(=O)O[C@@]1(C)[C@H]3[C@H]2C`
Reply | 1.3
